Data credit: ChEMBL document CHEMBL1144635

METHOD_SUMMARY: Volume of distribution in mouse at 10 mg/kg, iv
Type: ADME, organism-based
Design: dose 10 mg/kg, route intravenous
PROTOCOL_CONDITIONS: in vivo, read-out: Vdss
TEST_READOUT: Vd (L/kg)

(A) CCc1ccc(NS(=O)(=O)c2ccccc2NCCC2CCCN2C)c(C(=O)O)c1OC (stereo not given)
(B) CCc1ccc(NS(=O)(=O)c2ccc(F)cc2)c(C(=O)O)c1OCCN
**Q:** Return label of the item with the larger Vd. Candidates: A , B . Your answer should be the label of the entry you select.
**A:** A
(A: 2 L/kg, B: 1.1 L/kg)
